Test: Cytotoxicity on primocultures at 24 hours (neutral red), fibroblasts
Format: cell-based
Conditions: fibroblasts; 24 hours; 10^-5M; read-out: Cellular Viability Rate
Experimental readout: viability at 24 h, 10 µM

CC(CCCCCC/C=C\CCCCCCCC(=O)O)O[C@@H]1O[C@H](CO)[C@@H](O)[C@H](O)[C@H]1O[C@@H]1O[C@H](CO)[C@@H](O)[C@H](O)[C@H]1O (some centres unmarked) [Sophorolipid in Acid Form]    98.7%

Turning to the following molecule.
Looking up CC1CCCCCC/C=C\CCCCCCCC(=O)O[C@H]2[C@H](O)[C@@H](O)[C@H](O[C@H]3[C@H](O1)O[C@H](CO)[C@@H](O)[C@@H]3O)O[C@@H]2CO (some centres unmarked) [Sophorolipid in Lactone Form] , I see its viability at 24 h, 10 µM listed as 100%
